# Test system: HepG2 cells
# Protocol Text: Mammalian cell toxicity (Cell Titer-Glo)
# Type: cell-based
# Experimental Parameters: Table 6, 48 h incubation
Reported HepG2 MIC50 values for the following molecules.
Experimental Endpoint: HepG2 MIC50 (µM)

* Nc1nc2sc(CNCC3CCN(C[C@@](O)(Cn4cncn4)c4ccc(F)cc4F)CC3)cc2n(-c2ccc3c(c2)N(c2ccccc2)CCO3)c1=O | 14.3
* CC1CC(NCc2cc3c(nc(N)c(=O)n3-c3ccc4c(c3)N(c3ccccc3)CCO4)s2)CCN1CC(O)(Cn1cncn1)c1ccc(F)cc1F (stereo not drawn) | 7.9
* Nc1nc2sc(C(=O)NC3CCN(CCCC(O)(Cn4cncn4)c4ccc(F)cc4F)CC3)cc2n(-c2ccc3c(c2)N(c2ccccc2)CCO3)c1=O (stereo not drawn) | 2
* CC1(NC(=O)c2cc3c(nc(N)c(=O)n3-c3ccc4c(c3)N(c3ccccc3)CCO4)s2)CCN(C[C@](O)(Cn2cncn2)c2ccc(F)cc2F)CC1 | 4
* Nc1nc2sc(CNCC3CCN(C[C@](O)(Cn4cncn4)c4ccc(F)cc4F)CC3)cc2n(-c2ccc3c(c2)N(c2ccccc2)CCO3)c1=O | 9
* Nc1nc2sc(C(=O)N[C@@H]3CCN(CCC(O)(Cn4cncn4)c4ccc(F)cc4F)C3)cc2n(-c2ccc3c(c2)N(c2ccccc2)CCO3)c1=O (stereo partly drawn) | 1.9
* Nc1nc2sc(C(=O)NC3CCN(CC4COC(Cn5cncn5)(c5ccc(F)cc5F)C4)CC3)cc2n(-c2ccc3c(c2)N(c2ccccc2)CCO3)c1=O (stereo not drawn) | 8.2
* Nc1nc2sc(CNC3CCN(CC(O)(Cn4ccnc4)c4ccc(F)cc4F)CC3)cc2n(-c2ccc3c(c2)N(c2ccccc2)CCO3)c1=O (stereo not drawn) | 3.9
* Nc1nc2sc(CNC3CCN(CC[C@@](O)(Cn4cncn4)c4ccc(F)cc4F)CC3)cc2n(-c2ccc3c(c2)N(c2ccccc2)CCO3)c1=O | 16.8

---

Reported Kd values for the following molecules.
# Experimental System: Hsp90 Nuclear Binding Domain (NBD) (Candida albicans (strain SC5314 / ATCC MYA-2876) (Yeast), UniProt P46598)
# Sequence (P46598 1-218 limits assumed): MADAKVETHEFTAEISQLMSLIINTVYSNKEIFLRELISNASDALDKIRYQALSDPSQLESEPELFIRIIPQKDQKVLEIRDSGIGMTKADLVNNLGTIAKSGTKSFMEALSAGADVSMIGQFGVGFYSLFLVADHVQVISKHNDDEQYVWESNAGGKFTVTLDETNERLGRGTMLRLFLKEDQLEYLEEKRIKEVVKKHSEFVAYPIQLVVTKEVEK
# Protocol Text: Surface Plasmon Resonance (SPR) binding, C. albicans Hsp90 NBD
# Experimental Parameters: biotinylated Hsp90 NBD on streptavidin chip, 25° C., 1:1 binding model
Experimental Endpoint: Kd

• Nc1nc2sc(-c3noc(C(=O)NN4CCN(CC(O)(Cn5cncn5)c5ccc(F)cc5F)CC4)n3)cc2n(-c2ccc3c(c2)N(c2ccccc2)CCO3)c1=O (stereo not drawn) [Compound I-54] = 73.5 nM
• Cc1ccc(-n2c(=O)c(N)nc3sc(C(=O)NC4CCN(CC(O)(Cn5cncn5)c5ccc(F)cc5F)CC4)cc32)cc1Oc1ccccc1 (stereo not drawn) [Compound I-12] = 146 nM
• Nc1nc2sc(CN[C@@H]3CCN(CC[C@@](O)(Cn4cncn4)c4ccc(F)cc4F)C3)cc2n(-c2ccc3c(c2)N(c2ccccc2)CCO3)c1=O [Compound I-123] = 145 nM
• Nc1nc2sc(C(=O)Nc3ccc(CN4CCN(CC(O)(Cn5cncn5)c5ccc(F)cc5F)CC4)cc3)cc2n(-c2ccc3c(c2)N(c2ccccc2)CCO3)c1=O (stereo not drawn) [Compound I-9] = 136 nM
• Nc1nc2sc(CNCCC(O)(Cn3cncn3)c3ccc(F)cc3F)cc2n(-c2ccc3c(c2)N(c2ccccc2)CCO3)c1=O (stereo not drawn) [Compound I-74] = 429 nM
• Nc1nc2sc(CN[C@@H]3CCCN(CC(O)(Cn4cncn4)c4ccc(F)cc4F)C3)cc2n(-c2ccc3c(c2)N(c2ccccc2)CCO3)c1=O (stereo partly drawn) [Compound I-75] = 233 nM

---

# Tested on: CaCl2
# Protocol Text: Antifungal sensitivity testing (broth microdilution MIC)
# Type: cell-based
# Experimental Parameters: Table 4; 96-well broth microdilution
Reported MIC50 values for the following compounds.
Experimental Endpoint: MIC50 (µM)

• Nc1nc2sc(-c3nc(C(=O)NCC(O)(Cn4cncn4)c4ccc(F)cc4F)no3)cc2n(-c2ccc3c(c2)N(c2ccccc2)CCO3)c1=O (stereo not drawn) = 20
• Nc1nc2sc(CN[C@@H]3CCCN(CC(O)(Cn4cncn4)c4ccc(F)cc4F)C3)cc2n(-c2ccc3c(c2)N(c2ccccc2)CCO3)c1=O (stereo partly drawn) = 4
• Nc1nc2sc(C(=O)N[C@@H]3CCN(CCC(O)(Cn4cncn4)c4ccc(F)cc4F)C3)cc2n(-c2ccc3c(c2)N(c2ccccc2)CCO3)c1=O (stereo partly drawn) = 8

---

pKd: −log10 of the molar value.
System: Hsp90 Nuclear Binding Domain (NBD) (Aspergillus fumigatus, UniProt P40292) | Read-out: pKd
Sequence (P40292 whole entry, looked up, the tested form may be a part): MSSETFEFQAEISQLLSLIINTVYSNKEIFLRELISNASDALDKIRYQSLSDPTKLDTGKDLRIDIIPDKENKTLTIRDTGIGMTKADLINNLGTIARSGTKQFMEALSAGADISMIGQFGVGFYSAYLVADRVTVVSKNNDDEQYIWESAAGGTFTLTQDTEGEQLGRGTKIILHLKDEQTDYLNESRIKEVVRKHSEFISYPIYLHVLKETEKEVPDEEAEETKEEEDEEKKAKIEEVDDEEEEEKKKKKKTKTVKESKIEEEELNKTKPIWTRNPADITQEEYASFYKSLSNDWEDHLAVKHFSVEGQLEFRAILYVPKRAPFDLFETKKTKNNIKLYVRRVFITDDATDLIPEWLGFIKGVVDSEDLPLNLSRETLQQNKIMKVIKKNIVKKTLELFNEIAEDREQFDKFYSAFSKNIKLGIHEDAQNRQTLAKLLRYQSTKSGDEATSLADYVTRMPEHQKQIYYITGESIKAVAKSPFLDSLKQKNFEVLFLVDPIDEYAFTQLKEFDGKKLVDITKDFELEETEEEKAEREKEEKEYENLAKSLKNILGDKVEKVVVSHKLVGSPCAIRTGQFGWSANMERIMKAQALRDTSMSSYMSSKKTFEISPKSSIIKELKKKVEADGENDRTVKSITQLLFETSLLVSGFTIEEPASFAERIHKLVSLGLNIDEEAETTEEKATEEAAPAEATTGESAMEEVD
Experimental Endpoint: pKd

* Nc1nc2sc(CN[C@H]3CCN(CC(O)(Cn4cncn4)c4ccc(F)cc4F)C3)cc2n(-c2ccc3c(c2)N(c2ccccc2)CCO3)c1=O (stereo partly drawn) | 5.90
* CC1(NC(=O)c2cc3c(nc(N)c(=O)n3-c3ccc4c(c3)N(c3ccccc3)CCO4)s2)CCN(C[C@](O)(Cn2cncn2)c2ccc(F)cc2F)CC1 | 7.63
* Cc1ccc(-n2c(=O)c(N)nc3sc(C(=O)NC4CCN(C[C@](O)(Cn5cncn5)c5ccc(F)cc5F)CC4)cc32)cc1Oc1ccccc1 | 6.52

---

# Experimental System: Hsp90 Nuclear Binding Domain (NBD) (Aspergillus fumigatus)
Reported Kd values for the following compounds.
Experimental Endpoint: Kd (nM)

* Nc1nc2sc(CN[C@@H]3CCN(CCC(O)(Cn4cncn4)c4ccc(F)cc4F)C3)cc2n(-c2ccc3c(c2)N(c2ccccc2)CCO3)c1=O (stereo partly drawn) | 265
* Nc1nc2sc(C(=O)NC3CCN(CC(O)(Cn4cncn4)c4ccc(F)cc4F)CC3)cc2n(-c2ccc3ccn(-c4ccccc4)c3c2)c1=O (stereo not drawn) | 75.1
* Nc1nc2sc(CN[C@H]3CCCN(C[C@](O)(Cn4cncn4)c4ccc(F)cc4F)C3)cc2n(-c2ccc3c(c2)N(c2ccccc2)CCO3)c1=O | 2190
* Nc1nc2sc(CNC3CCN(C[C@](O)(Cn4cncn4)c4ccc(F)cc4F)CC3)cc2n(-c2ccc3c(c2)N(c2ccccc2)CCO3)c1=O | 591
* Nc1nc2sc(CNC3CN(CC(O)(Cn4cncn4)c4ccc(F)cc4F)C3)cc2n(-c2ccc3c(c2)N(c2ccccc2)CCO3)c1=O (stereo not drawn) | 1380
* COC(=O)c1c(C(=O)NC2CCN(CC(O)(Cn3cncn3)c3ccc(F)cc3F)CC2)sc2nc(N)c(=O)n(-c3ccc4c(c3)N(c3ccccc3)CCO4)c12 (stereo not drawn) | 314

---

Reported HepG2 MIC50 values for the following compounds.
# Tested on: HepG2 cells
# Protocol Text: Mammalian cell toxicity (Cell Titer-Glo)
# Format: cell-based
# Experimental Parameters: Table 5, 48 h incubation
Experimental Endpoint: HepG2 MIC50 (µM)

- CC1(NC(=O)c2cc3c(nc(N)c(=O)n3-c3ccc4c(c3)N(c3ccccc3)CCO4)s2)CCN(C[C@](O)(Cn2cncn2)c2ccc(F)cc2F)CC1 [Compound I-53]: 4
- Nc1nc2sc(CNC3CCN(CC(O)(Cn4cncn4)c4ccc(F)cc4F)CC3)cc2n(-c2ccc3c(c2)N(c2ccccc2)CCO3)c1=O (stereo not drawn) [Compound I-47]: 4.4
- CC1(NC(=O)c2cc3c(nc(N)c(=O)n3-c3ccc4c(c3)N(c3ccccc3)CCO4)s2)CCN(CC(O)(Cn2cncn2)c2ccc(F)cc2F)CC1 (stereo not drawn) [Compound I-31]: 4.6
- Nc1nc2sc(CNC3CCN(CC(O)(Cn4ccnc4)c4ccc(F)cc4F)CC3)cc2n(-c2ccc3c(c2)N(c2ccccc2)CCO3)c1=O (stereo not drawn) [Compound I-139]: 3.9
- Nc1nc2sc(CNCC3CCN(C[C@](O)(Cn4cncn4)c4ccc(F)cc4F)CC3)cc2n(-c2ccc3c(c2)N(c2ccccc2)CCO3)c1=O [Compound I-131]: 9
- Nc1nc2sc(CNC3CCN(CCCCCC(O)(Cn4cncn4)c4ccc(F)cc4F)CC3)cc2n(-c2ccc3c(c2)N(c2ccccc2)CCO3)c1=O (stereo not drawn) [Compound I-118]: 3

---

# System: HepG2 cells
# Protocol Text: Mammalian cell toxicity (Cell Titer-Glo)
# Format: cell-based
# Experimental Parameters: Table 6, 48 h incubation
Reported HepG2 MIC50 values for the following molecules.
Experimental Endpoint: HepG2 MIC50

* Nc1nc2sc(CNC3CCN(C[C@@](O)(Cn4cncn4)c4ccc(F)cc4F)CC3)cc2n(-c2ccc3c(c2)N(c2ccccc2)CCO3)c1=O | 10.6 µM
* Nc1nc2sc(C(=O)N[C@@H]3CCN(C[C@@](O)(Cn4cncn4)c4ccc(F)cc4F)C3)cc2n(-c2ccc3c(c2)N(c2ccccc2)CCO3)c1=O | 2.4 µM
* Nc1nc2sc(CNC3CCN(CCC(O)(Cn4cncn4)c4ccc(F)cc4F)CC3)cc2n(-c2ccc3c(c2)N(c2ccccc2)CCO3)c1=O (stereo not drawn) | 4.6 µM
* Nc1nc2sc(CNC3CCN(CCCCCC(O)(Cn4cncn4)c4ccc(F)cc4F)CC3)cc2n(-c2ccc3c(c2)N(c2ccccc2)CCO3)c1=O (stereo not drawn) | 3 µM
* Nc1nc2sc(CN[C@H]3CCCN(C[C@](O)(Cn4cncn4)c4ccc(F)cc4F)C3)cc2n(-c2ccc3c(c2)N(c2ccccc2)CCO3)c1=O | >20 µM
* Nc1nc2sc(CN3CCC(NCC(O)(Cn4cncn4)c4ccc(F)cc4F)CC3)cc2n(-c2ccc3c(c2)N(c2ccccc2)CCO3)c1=O (stereo not drawn) | 15 µM
* Nc1nc2sc(CNC3CCN(CC(=O)OCCC(O)(Cn4cncn4)c4ccc(F)cc4F)CC3)cc2n(-c2ccc3c(c2)N(c2ccccc2)CCO3)c1=O (stereo not drawn) | 19.4 µM
* COC(=O)c1c(C(=O)NC2CCN(CC(O)(Cn3cncn3)c3ccc(F)cc3F)CC2)sc2nc(N)c(=O)n(-c3ccc4c(c3)N(c3ccccc3)CCO4)c12 (stereo not drawn) | >10 µM
* Nc1nc2sc(-c3noc(C(=O)NN4CCN(CC(O)(Cn5cncn5)c5ccc(F)cc5F)CC4)n3)cc2n(-c2ccc3c(c2)N(c2ccccc2)CCO3)c1=O (stereo not drawn) | >10 µM
* Nc1nc2sc(C(=O)NC3CCN(C[C@](O)(Cn4cncn4)c4ccc(F)cc4F)CC3)cc2n(-c2ccc3ccn(-c4ccccc4)c3c2)c1=O | >50 µM
* Nc1nc2sc(C(=O)NC3CCN(CC(O)(Cn4cncn4)c4ccc(F)cc4F)CC3)cc2n(-c2ccc3c(c2)N(c2ccccc2)CCO3)c1=O (stereo not drawn) | >10 µM
* Nc1nc2sc(CNCC3CCN(CC(O)(Cn4cncn4)c4ccc(F)cc4F)CC3)cc2n(-c2ccc3c(c2)N(c2ccccc2)CCO3)c1=O (stereo not drawn) | 4.7 µM

Source of measurements: patent US20240424113A1
